Target: Calcium/calmodulin-dependent protein kinase type II subunit delta (Homo sapiens, UniProt Q13557)
Sequence (Q13557 whole entry): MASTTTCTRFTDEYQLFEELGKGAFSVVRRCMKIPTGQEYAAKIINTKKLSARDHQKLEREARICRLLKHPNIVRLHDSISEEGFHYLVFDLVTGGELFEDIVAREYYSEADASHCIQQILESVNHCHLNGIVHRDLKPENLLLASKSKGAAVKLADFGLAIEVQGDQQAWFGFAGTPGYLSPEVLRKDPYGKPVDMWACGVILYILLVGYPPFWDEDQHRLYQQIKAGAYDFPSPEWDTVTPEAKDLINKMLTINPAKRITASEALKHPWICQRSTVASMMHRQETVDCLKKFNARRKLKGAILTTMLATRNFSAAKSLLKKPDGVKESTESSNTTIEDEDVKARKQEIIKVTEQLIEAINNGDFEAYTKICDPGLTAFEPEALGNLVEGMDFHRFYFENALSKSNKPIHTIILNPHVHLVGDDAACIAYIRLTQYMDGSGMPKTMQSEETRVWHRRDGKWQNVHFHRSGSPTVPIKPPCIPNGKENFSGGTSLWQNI
Test: Inhibition of human CAMK2delta preincubated with compound for 20 mins followed by [33P]ATP addition and measured after 2 hrs by filter binding method
METRIC: IC50

// field: IC50; key: CCN1CCN(Cc2ccc(Nc3ncc(F)c(-c4cc(F)c5nc(C)n(C(C)C)c5c4)n3)nc2)CC1 [ABEMACICLIB] ; value = 2.6 nM

* * *

Listed compounds paired with reported pIC50
Target: Calcium/calmodulin-dependent protein kinase type II subunit beta (Homo sapiens)
Sequence (Q13554 whole entry): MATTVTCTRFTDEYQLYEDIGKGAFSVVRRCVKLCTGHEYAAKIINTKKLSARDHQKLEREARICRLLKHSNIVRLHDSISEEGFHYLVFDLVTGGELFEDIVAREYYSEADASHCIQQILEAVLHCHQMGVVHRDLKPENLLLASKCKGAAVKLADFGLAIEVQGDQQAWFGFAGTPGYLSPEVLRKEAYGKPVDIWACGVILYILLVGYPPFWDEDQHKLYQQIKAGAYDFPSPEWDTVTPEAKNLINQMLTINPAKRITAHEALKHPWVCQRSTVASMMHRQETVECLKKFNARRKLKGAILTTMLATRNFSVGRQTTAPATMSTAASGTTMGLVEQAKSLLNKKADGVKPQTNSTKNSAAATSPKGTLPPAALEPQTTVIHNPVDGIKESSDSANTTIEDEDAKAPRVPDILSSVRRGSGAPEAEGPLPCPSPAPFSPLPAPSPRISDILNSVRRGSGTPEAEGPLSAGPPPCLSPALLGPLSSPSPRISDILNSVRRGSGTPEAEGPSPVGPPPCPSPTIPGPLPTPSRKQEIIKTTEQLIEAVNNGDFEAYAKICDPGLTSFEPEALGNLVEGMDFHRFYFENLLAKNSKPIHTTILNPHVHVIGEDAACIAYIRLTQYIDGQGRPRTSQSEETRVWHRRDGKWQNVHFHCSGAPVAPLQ
Experiment: Inhibition of human CAMK2beta preincubated with compound for 20 mins followed by [33P]ATP addition and measured after 2 hrs by filter binding method
Please report pIC50 as the negative decimal logarithm of the molar concentration, giving only the number.

[[record]]
smiles_notation = "CC(=O)c1c(C)c2cnc(Nc3ccc(N4CCNCC4)cn3)nc2n(C2CCCC2)c1=O"
recorded_measurement = 5.80


Could you now consider this next compound?
pIC50 for `CCN1CCN(Cc2ccc(Nc3ncc(F)c(-c4cc(F)c5nc(C)n(C(C)C)c5c4)n3)nc2)CC1` is 8.46

* * *

Target: Calcium/calmodulin-dependent protein kinase type II subunit gamma (Homo sapiens)
Sequence (Q13555 whole entry): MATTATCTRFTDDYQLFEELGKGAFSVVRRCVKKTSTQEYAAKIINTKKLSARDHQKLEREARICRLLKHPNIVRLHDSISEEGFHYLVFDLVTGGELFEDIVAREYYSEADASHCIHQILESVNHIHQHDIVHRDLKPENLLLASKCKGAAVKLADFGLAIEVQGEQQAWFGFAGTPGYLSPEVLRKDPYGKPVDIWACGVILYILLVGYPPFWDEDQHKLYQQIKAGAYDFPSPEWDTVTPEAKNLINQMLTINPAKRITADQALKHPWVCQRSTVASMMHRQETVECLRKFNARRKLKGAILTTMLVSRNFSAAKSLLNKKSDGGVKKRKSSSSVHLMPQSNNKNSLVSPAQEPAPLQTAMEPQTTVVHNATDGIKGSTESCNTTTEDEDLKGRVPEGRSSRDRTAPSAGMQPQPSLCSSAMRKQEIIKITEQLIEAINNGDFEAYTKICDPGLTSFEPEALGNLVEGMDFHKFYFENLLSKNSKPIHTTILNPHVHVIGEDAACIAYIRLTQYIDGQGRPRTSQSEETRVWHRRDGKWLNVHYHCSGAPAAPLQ
Assay: Inhibition of human CAMK2gamma preincubated with compound for 20 mins followed by [33P]ATP addition and measured after 2 hrs by filter binding method
METRIC: IC50 (nM)
Reply with just the number (in nM).

Record for `CCN1CCN(Cc2ccc(Nc3ncc(F)c(-c4cc(F)c5nc(C)n(C(C)C)c5c4)n3)nc2)CC1` under target or system Calcium/calmodulin-dependent protein kinase type II subunit gamma (Homo sapiens): IC50 reported as 52
